# experiment notes: Peak serum concentration (Cmax) in clinical trials at recommended clinical dose
# Assay type: in vivo, human
# assay setup: 1× dose for the screen
property: uM (1×) (peak serum concentration converted using molecular weight) (µM)

molecule | quantitative readout
CCCS(=O)(=O)Nc1ccc(F)c(C(=O)c2c[nH]c3ncc(-c4ccc(Cl)cc4)cc23)c1F [Vemurafenib] | 9.80
Cn1cnc2c(F)c(Nc3ccc(Br)cc3Cl)c(C(=O)NOCCO)cc21 [Selumetinib] | 2.55
CC(C)(C)c1nc(-c2cccc(NS(=O)(=O)c3c(F)cccc3F)c2F)c(-c2ccnc(N)n2)s1 [Dabrafenib] | 2.02
Cn1cnc2c(F)c(Nc3ccc(Br)cc3F)c(C(=O)NOCCO)cc21 [Binimetinib] | 0.58
O=C(c1ccc(F)c(F)c1Nc1ccc(I)cc1F)N1CC(O)([C@@H]2CCCCN2)C1 [Cobimetinib] | 0.51
CC(=O)Nc1cccc(-n2c(=O)n(C3CC3)c(=O)c3c(Nc4ccc(I)cc4F)n(C)c(=O)c(C)c32)c1 [Trametinib] | 0.04
